Test system: Bacteroides fragilis
Protocol: Expected efficacy of antibiotic agents
Condition description: expected efficacy against Bacteroides fragilis; Gram: anaer
Readout kind: Efficacy

- CO/N=C(\C(=O)N[C@@H]1C(=O)N2C(C(=O)O)=C(CSc3nc(=O)c(=O)[nH]n3C)CS[C@H]12)c1csc(N)n1 [Ceftriaxone]: yes
- NC[C@H]1O[C@H](O[C@H]2[C@H](O)[C@@H](O[C@H]3O[C@H](CO)[C@@H](O)[C@H](N)[C@H]3O)[C@H](N)C[C@@H]2N)[C@H](N)C[C@@H]1O [Tobramycin]: no
- O=C(O)c1cn(C2CC2)c2cc(N3CCNCC3)c(F)cc2c1=O [Ciprofloxacin]: no

----------
Test system: Proteus mirabilis
Protocol: Expected efficacy of antibiotic agents
Condition description: expected efficacy against Proteus mirabilis; Gram: neg
Readout kind: Efficacy

Here are 5 compounds together with their reported answers.
• C/C(=C\C(=O)OCCCCCCCCC(=O)O)C[C@@H]1OC[C@H](C[C@@H]2O[C@H]2[C@@H](C)[C@H](C)O)[C@@H](O)[C@H]1O = no
• NC[C@H]1O[C@H](O[C@H]2[C@H](O)[C@@H](O[C@H]3O[C@H](CO)[C@@H](O)[C@H](N)[C@H]3O)[C@H](N)C[C@@H]2N)[C@H](N)C[C@@H]1O = yes
• CC[C@H]1OC(=O)[C@H](C)[C@@H](O[C@H]2C[C@@](C)(OC)[C@@H](O)[C@H](C)O2)[C@H](C)[C@@H](O[C@@H]2O[C@H](C)C[C@H](N(C)C)[C@H]2O)[C@](C)(O)C[C@@H](C)CN(C)[C@H](C)[C@@H](O)[C@]1(C)O = no
• O=C(O)c1cn(C2CC2)c2cc(N3CCNCC3)c(F)cc2c1=O = yes
• CN[C@H](CC(C)C)C(=O)N[C@H]1C(=O)N[C@@H](CC(N)=O)C(=O)N[C@H]2C(=O)N[C@H]3C(=O)N[C@H](C(=O)N[C@H](C(=O)O)c4cc(O)cc(O)c4-c4cc3ccc4O)[C@H](O)c3ccc(c(Cl)c3)Oc3cc2cc(c3O[C@@H]2O[C@H](CO)[C@@H](O)[C@H](O)[C@H]2O[C@H]2C[C@](C)(N)[C@H](O)[C@H](C)O2)Oc2ccc(cc2Cl)[C@H]1O = no

Given `CO/N=C(\C(=O)N[C@@H]1C(=O)N2C(C(=O)O)=C(CSc3nc(=O)c(=O)[nH]n3C)CS[C@H]12)c1csc(N)n1` , state its recorded Efficacy. yes

----------
Test system: Clostridium perfringens
Condition description: expected efficacy against Clostridium perfringens; Gram: anaer
Readout kind: Efficacy

* C/C(=C\C(=O)OCCCCCCCCC(=O)O)C[C@@H]1OC[C@H](C[C@@H]2O[C@H]2[C@@H](C)[C@H](C)O)[C@@H](O)[C@H]1O | no
* CC[C@H]1OC(=O)[C@H](C)[C@@H](O[C@H]2C[C@@](C)(OC)[C@@H](O)[C@H](C)O2)[C@H](C)[C@@H](O[C@@H]2O[C@H](C)C[C@H](N(C)C)[C@H]2O)[C@](C)(O)C[C@@H](C)CN(C)[C@H](C)[C@@H](O)[C@]1(C)O | no
* CO/N=C(\C(=O)N[C@@H]1C(=O)N2C(C(=O)O)=C(CSc3nc(=O)c(=O)[nH]n3C)CS[C@H]12)c1csc(N)n1 | yes
* NC[C@H]1O[C@H](O[C@H]2[C@H](O)[C@@H](O[C@H]3O[C@H](CO)[C@@H](O)[C@H](N)[C@H]3O)[C@H](N)C[C@@H]2N)[C@H](N)C[C@@H]1O | no

----------
Test system: Shigella boydii
Protocol: Expected efficacy of antibiotic agents
Condition description: expected efficacy against Shigella boydii; Gram: neg
Readout kind: Efficacy

- C/C(=C\C(=O)OCCCCCCCCC(=O)O)C[C@@H]1OC[C@H](C[C@@H]2O[C@H]2[C@@H](C)[C@H](C)O)[C@@H](O)[C@H]1O: no
- CN[C@H](CC(C)C)C(=O)N[C@H]1C(=O)N[C@@H](CC(N)=O)C(=O)N[C@H]2C(=O)N[C@H]3C(=O)N[C@H](C(=O)N[C@H](C(=O)O)c4cc(O)cc(O)c4-c4cc3ccc4O)[C@H](O)c3ccc(c(Cl)c3)Oc3cc2cc(c3O[C@@H]2O[C@H](CO)[C@@H](O)[C@H](O)[C@H]2O[C@H]2C[C@](C)(N)[C@H](O)[C@H](C)O2)Oc2ccc(cc2Cl)[C@H]1O: no

----------
Tested on: Staphylococcus aureus (MSSA)
Protocol: Expected efficacy of antibiotic agents
Condition description: expected efficacy against Staphylococcus aureus (MSSA); Gram: pos
Readout kind: Efficacy

- CN[C@H](CC(C)C)C(=O)N[C@H]1C(=O)N[C@@H](CC(N)=O)C(=O)N[C@H]2C(=O)N[C@H]3C(=O)N[C@H](C(=O)N[C@H](C(=O)O)c4cc(O)cc(O)c4-c4cc3ccc4O)[C@H](O)c3ccc(c(Cl)c3)Oc3cc2cc(c3O[C@@H]2O[C@H](CO)[C@@H](O)[C@H](O)[C@H]2O[C@H]2C[C@](C)(N)[C@H](O)[C@H](C)O2)Oc2ccc(cc2Cl)[C@H]1O: yes
- CO/N=C(\C(=O)N[C@@H]1C(=O)N2C(C(=O)O)=C(CSc3nc(=O)c(=O)[nH]n3C)CS[C@H]12)c1csc(N)n1: yes
- CC[C@H]1OC(=O)[C@H](C)[C@@H](O[C@H]2C[C@@](C)(OC)[C@@H](O)[C@H](C)O2)[C@H](C)[C@@H](O[C@@H]2O[C@H](C)C[C@H](N(C)C)[C@H]2O)[C@](C)(O)C[C@@H](C)CN(C)[C@H](C)[C@@H](O)[C@]1(C)O: yes
- C/C(=C\C(=O)OCCCCCCCCC(=O)O)C[C@@H]1OC[C@H](C[C@@H]2O[C@H]2[C@@H](C)[C@H](C)O)[C@@H](O)[C@H]1O: yes

Consider the record given below.
Given `NC[C@H]1O[C@H](O[C@H]2[C@H](O)[C@@H](O[C@H]3O[C@H](CO)[C@@H](O)[C@H](N)[C@H]3O)[C@H](N)C[C@@H]2N)[C@H](N)C[C@@H]1O` , state its recorded Efficacy. no

----------
Tested on: Shigella boydii
Protocol: Expected efficacy of antibiotic agents
Condition description: expected efficacy against Shigella boydii; Gram: neg
Readout kind: Efficacy

- CO/N=C(\C(=O)N[C@@H]1C(=O)N2C(C(=O)O)=C(CSc3nc(=O)c(=O)[nH]n3C)CS[C@H]12)c1csc(N)n1: yes
- NC[C@H]1O[C@H](O[C@H]2[C@H](O)[C@@H](O[C@H]3O[C@H](CO)[C@@H](O)[C@H](N)[C@H]3O)[C@H](N)C[C@@H]2N)[C@H](N)C[C@@H]1O: yes
- O=C(O)c1cn(C2CC2)c2cc(N3CCNCC3)c(F)cc2c1=O: yes

----------
Test system: Klebsiella oxytoca
Protocol: Expected efficacy of antibiotic agents
Condition description: expected efficacy against Klebsiella oxytoca; Gram: neg
Readout kind: Efficacy

• O=C(O)c1cn(C2CC2)c2cc(N3CCNCC3)c(F)cc2c1=O = yes
• CO/N=C(\C(=O)N[C@@H]1C(=O)N2C(C(=O)O)=C(CSc3nc(=O)c(=O)[nH]n3C)CS[C@H]12)c1csc(N)n1 = yes
• NC[C@H]1O[C@H](O[C@H]2[C@H](O)[C@@H](O[C@H]3O[C@H](CO)[C@@H](O)[C@H](N)[C@H]3O)[C@H](N)C[C@@H]2N)[C@H](N)C[C@@H]1O = yes

----------
Tested on: Vibrio cholerae
Protocol: Expected efficacy of antibiotic agents
Condition description: expected efficacy against Vibrio cholerae; Gram: neg
Readout kind: Efficacy

• NC[C@H]1O[C@H](O[C@H]2[C@H](O)[C@@H](O[C@H]3O[C@H](CO)[C@@H](O)[C@H](N)[C@H]3O)[C@H](N)C[C@@H]2N)[C@H](N)C[C@@H]1O [Tobramycin] = no
• CC[C@H]1OC(=O)[C@H](C)[C@@H](O[C@H]2C[C@@](C)(OC)[C@@H](O)[C@H](C)O2)[C@H](C)[C@@H](O[C@@H]2O[C@H](C)C[C@H](N(C)C)[C@H]2O)[C@](C)(O)C[C@@H](C)CN(C)[C@H](C)[C@@H](O)[C@]1(C)O [Azithromycin] = yes

----------
System: Corynebacterium urealyticum
Protocol: Expected efficacy of antibiotic agents
Condition description: expected efficacy against Corynebacterium urealyticum; Gram: pos
Readout kind: Efficacy

• C/C(=C\C(=O)OCCCCCCCCC(=O)O)C[C@@H]1OC[C@H](C[C@@H]2O[C@H]2[C@@H](C)[C@H](C)O)[C@@H](O)[C@H]1O [Bactroban] = no
• CN[C@H](CC(C)C)C(=O)N[C@H]1C(=O)N[C@@H](CC(N)=O)C(=O)N[C@H]2C(=O)N[C@H]3C(=O)N[C@H](C(=O)N[C@H](C(=O)O)c4cc(O)cc(O)c4-c4cc3ccc4O)[C@H](O)c3ccc(c(Cl)c3)Oc3cc2cc(c3O[C@@H]2O[C@H](CO)[C@@H](O)[C@H](O)[C@H]2O[C@H]2C[C@](C)(N)[C@H](O)[C@H](C)O2)Oc2ccc(cc2Cl)[C@H]1O [Vancomycin] = yes
• NC[C@H]1O[C@H](O[C@H]2[C@H](O)[C@@H](O[C@H]3O[C@H](CO)[C@@H](O)[C@H](N)[C@H]3O)[C@H](N)C[C@@H]2N)[C@H](N)C[C@@H]1O [Tobramycin] = no
• CO/N=C(\C(=O)N[C@@H]1C(=O)N2C(C(=O)O)=C(CSc3nc(=O)c(=O)[nH]n3C)CS[C@H]12)c1csc(N)n1 [Ceftriaxone] = no

# credit: patent US20220265694A1
